testedOn: FGFR3 (UniProt P22607)
Sequence (P22607 whole entry, looked up): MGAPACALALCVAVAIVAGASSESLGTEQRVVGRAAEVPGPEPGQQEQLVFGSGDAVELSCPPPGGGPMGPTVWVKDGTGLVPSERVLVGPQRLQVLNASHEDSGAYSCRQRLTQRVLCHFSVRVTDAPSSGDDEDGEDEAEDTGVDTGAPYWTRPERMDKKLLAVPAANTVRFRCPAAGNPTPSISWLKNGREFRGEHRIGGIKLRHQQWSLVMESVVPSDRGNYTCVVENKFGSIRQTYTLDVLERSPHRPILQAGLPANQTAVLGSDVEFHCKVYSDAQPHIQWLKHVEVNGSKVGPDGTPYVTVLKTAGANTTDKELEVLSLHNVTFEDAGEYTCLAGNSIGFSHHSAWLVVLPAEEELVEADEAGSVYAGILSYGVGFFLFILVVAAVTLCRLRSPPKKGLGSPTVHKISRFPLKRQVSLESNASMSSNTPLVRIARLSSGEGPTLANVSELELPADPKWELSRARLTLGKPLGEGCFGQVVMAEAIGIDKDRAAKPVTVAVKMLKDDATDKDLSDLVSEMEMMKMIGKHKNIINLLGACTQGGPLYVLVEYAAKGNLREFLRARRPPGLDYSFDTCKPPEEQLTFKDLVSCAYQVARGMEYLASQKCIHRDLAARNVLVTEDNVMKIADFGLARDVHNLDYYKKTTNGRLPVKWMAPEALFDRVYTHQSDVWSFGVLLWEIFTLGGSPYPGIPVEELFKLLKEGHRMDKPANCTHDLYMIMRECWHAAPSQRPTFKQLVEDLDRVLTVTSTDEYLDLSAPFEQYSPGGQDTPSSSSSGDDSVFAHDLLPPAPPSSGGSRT
experimentSummary: phosphorylation enrichment, bacterial display (enrichment ratio); higher = better substrate or ligand; peptides without Tyr show the background
quantityMeasured: phosphorylation enrichment
Numbers only.

RPDSPYSRPHD [DOK2_Y271] :: 0.485
KPLMPCMRYSR [SMARCE1_Y73_Y73C] :: 0.476
KIIRWYVSSEG [ANK2_Y3907_R3906W] :: 0.784
LGPDGYSTVDR [ARVCF_Y901] :: 0.81
NELTYYCYKKD [CD59_Y87_C89Y] :: 1.98
FSNKLYFQLEQ [PDPR_Y109_YF] :: 2.7
DPLLTYLFPPK [LMNA_Y481_R482L] :: 2.62
EVESPYEVRDY [GIGYF2_Y1168_H1171R] :: 0.751
KHTLSYVDVGT [SDHA_Y629] :: 0.589
ADLLVYIKALN [HPRT1_Y81_D80V] :: 0.935

Batch of 4 sequences: report phosphorylation enrichment for each.
1. SGFESYGSSSS [RPA2_Y9_Y14S]
2. MSSLFYANTLF [HOXB7_Y6_YF]
3. EEQFFYEKAIL [BCCIP_Y257_E254Q]
4. ECKHLYSRKEG [PTPN11_Y263_L261H]

## Output
0.599
0.735
0.588
0.397

###

Kindly supply the reported SH2 binding enrichment values for the records listed here.
testedOn: Grb2 SH2 (UniProt P62993)
Sequence (P62993 whole entry, looked up): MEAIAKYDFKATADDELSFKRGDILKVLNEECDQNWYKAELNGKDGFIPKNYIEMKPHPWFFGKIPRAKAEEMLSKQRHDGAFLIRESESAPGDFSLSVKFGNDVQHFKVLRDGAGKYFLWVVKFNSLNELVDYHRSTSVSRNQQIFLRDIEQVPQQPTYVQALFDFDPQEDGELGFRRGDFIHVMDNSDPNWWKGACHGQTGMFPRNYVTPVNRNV
experimentSummary: SH2 binding enrichment of the phosphorylated peptide, bacterial display (enrichment ratio); higher = better substrate or ligand; peptides without Tyr show the background

RHTRSYDYMEG [FGF7_Y56] :: 1.33

Batch of 4 sequences: report SH2 binding enrichment for each.
1. TGYRPYVCPFD [YY1_Y383_D380Y]
2. EVEPTYVVLFD [ERCC4_Y577_R576T_YF]
3. INASGYRVGPA [ACSM1_Y477_I479V]
4. WCSNDHLGMSR [ALAS2_Y199_Y199H]

## Output
0.797
0.749
0.853
0.801

Batch of 2 sequences: report SH2 binding enrichment for each.
1. EEKSCYILHSS [PATJ_Y783_E780K]
2. PVGDVYKKKGL [NMNAT1_Y55_A54V]

## Output
1. 0.805
2. 0.837

###

Test system: c-Abl (mouse)
experimentSummary: phosphorylation enrichment, bacterial display (enrichment ratio); higher = better substrate or ligand; peptides without Tyr show the background
Is phosphorylation enrichment at least 0.6? Then True. If not, False.

## Input For this sequence, is measured phosphorylation enrichment 0.6 or higher? RWHEGYRQTPK [CD44_Y412]
## Output False

## Input For this sequence, is measured phosphorylation enrichment 0.6 or higher? YISLIYTNYEA [GSTP1_Y109]
## Output True

## Input For this sequence, is measured phosphorylation enrichment 0.6 or higher? SIKDKHVTALF [KCNH2_Y611_Y611H_YF]
## Output False

## Input For this sequence, is measured phosphorylation enrichment 0.6 or higher? DKATEYIQFMR [MAX_Y70_YF]
## Output True

###

testedOn: FGFR3 (UniProt P22607)
experimentSummary: phosphorylation enrichment, bacterial display (enrichment ratio); higher = better substrate or ligand; peptides without Tyr show the background
quantityMeasured: phosphorylation enrichment
Give bare numbers.

// below: answered sequences
LEKRAYICAHP [ACAD9_Y611] :: 0.616
NVADHYGVFKP [ATP6V0D2_Y271_YF] :: 0.408
HKLSYCEYDFE [BTK_Y40_Y40C] :: 1.34

Batch of 4 sequences: report phosphorylation enrichment for each.
1. VHSGTYQVTVR [MYBPC3_Y1043]
2. RNGDRYFKEIV [DCX_Y64_G67E]
3. TPSGNYVACGG [GNB1_Y111_A106T]
4. FKGKNYKPLDL [RPL35_Y78_K77N_YF]

## Output
[0.391, 1.51, 0.436, 0.418]

Batch of 7 sequences: report phosphorylation enrichment for each.
1. ANAYIYVVQLP [L1CAM_Y420]
2. HVIKFYGACSQ [RET_Y791_L790F]
3. TLLERYGMTEI [ACSF3_Y355]
4. EFQLPYFNMVP [BMPR1A_Y457_YF]
5. PFRQWYESHFA [RPS8_Y113_YF]
6. DRLASYLDKVR [KRT10_Y160]
7. DRLASYLDKAR [KRT14_Y129_V133A]

## Output
1. 1.18
2. 1.08
3. 0.564
4. 3.58
5. 0.524
6. 0.471
7. 0.45

Values compiled from the supplement of paper PMC10065799.
